protocol.description: AUC (0 to infinity) in mouse at 10 mg/kg, po by LC-MS/MS analysis
Type: ADME, organism-based
Design: dose 10 mg/kg, route po
applied.conditions: in vivo

| compound.smiles | AUC(0-inf) (µg·h/mL) |
| --- | --- |
| COc1cc(Cl)cc(N2CCN(c3cnnc4c(Cl)cccc34)CC2)c1 | 0.534 |

* * *

protocol.description: Metabolic stability in CD-1 mouse liver microsomes assessed as intrinsic clearance at 100 uM measured upto 60 mins in presence of NADPH by LC-MS/MS analysis
Format: ADME, Microsome
applied.conditions: CD-1, mouse, liver microsomes, read-out: CLH
metric: microsomal CLint at 100 µM (µL/min/mg)

| compound.smiles | metric | recorded.value |
| --- | --- | --- |
| OC(O)COc1cc(Cl)cc(N2CCN(c3cnnc4c(Cl)cccc34)CC2)c1 | microsomal CLint at 100 µM | 32.5 |

* * *

protocol.description: Metabolic stability in CD-1 mouse liver microsomes assessed as intrinsic clearance at 100 uM measured upto 60 mins in presence of NADPH by LC-MS/MS analysis
Assay type: ADME, Microsome
applied.conditions: mouse, microsomes, 1 h, 100 µM
log10 microsomal intrinsic clearance: recorded values
metric: log10 microsomal intrinsic clearance (log10 of the value in µL/min/mg)

| compound.smiles | log10 microsomal intrinsic clearance |
| --- | --- |
| Fc1c(Cl)cc(N2CCN(c3cnnc4c(Cl)cccc34)CC2)cc1Cl | 1.63 |
| Clc1cccc(N2CCN(c3cnnc4c(Cl)cccc34)CC2)c1 | 2.06 |
| COC(=O)CCOc1cc(Cl)cc(N2CCN(c3cnnc4c(Cl)cccc34)CC2)c1 | 1.59 |
| COc1cc(Cl)cc(N2CCN(c3cnnc4c(Cl)cccc34)CC2)c1 | 2.91 |
| OCCOc1cc(Cl)cc(N2CCN(c3cnnc4c(Cl)cccc34)CC2)c1 | 1.86 |
| Fc1ccc(N2CCN(c3cnnc4c(Cl)cccc34)CC2)cc1Cl | 2.31 |
| COc1cc(OC)cc(N2CCN(c3cnnc4c(Cl)cccc34)CC2)c1 | 2.82 |

* * *

protocol.description: AUC (0 to last) in mouse at 25 mg/kg, po by LC-MS/MS analysis
Type: ADME, organism-based
Set-up: dose 25 mg/kg, route po
applied.conditions: in vivo
metric: AUC(0-t) (ng·h/mL)

| compound.smiles | readout.unit | recorded.value |
| --- | --- | --- |
| Clc1cccc(N2CCN(c3cnnc4c(Cl)cccc34)CC2)c1 | ng·h/mL | 310 |

* * *

Tested on: HT-1080
protocol.description: cells
applied.conditions: Homo sapiens, HT-1080, 72 h
pIC50: −log10 of the molar value.
metric: pIC50

| compound.smiles | metric | reported.relation | recorded.value |
| --- | --- | --- | --- |
| Clc1cccc(N2CCN(c3ccnnc3)CC2)c1 | pIC50 | < | 4.70 |
| Clc1cccc(N2CCN(c3ccnc4c(Cl)cccc34)CC2)c1 | pIC50 | < | 4.70 |
| COc1cc(Cl)cc(N2CCN(c3cnnc4c(Cl)cccc34)CC2)c1 | pIC50 | = | 7.36 |
| CN(C)CCCOc1cc(Cl)cc(N2CCN(c3cnnc4c(Cl)cccc34)CC2)c1 | pIC50 | = | 5.57 |
| CC(=O)Nc1cc(Cl)cc(N2CCN(c3cnnc4c(Cl)cccc34)CC2)c1 | pIC50 | = | 4.97 |
| Clc1cc(Cl)cc(N2CCN(c3cnnc4c(Cl)cccc34)CC2)c1 | pIC50 | = | 6.39 |
| CN(C)CCOc1cc(Cl)cc(N2CCN(c3cnnc4c(Cl)cccc34)CC2)c1 | pIC50 | = | 5.33 |
| C[C@H]1CN(c2cnnc3c(Cl)cccc23)CCN1c1cc(Cl)cc(Cl)c1 | pIC50 | = | 5.94 |
| Oc1cc(O)cc(N2CCN(c3cnnc4c(Cl)cccc34)CC2)c1 | pIC50 | = | 6.02 |
| Clc1cccc(N2C[C@@H]3CN(c4cnnc5c(Cl)cccc45)C[C@@H]3C2)c1 | pIC50 | < | 4.70 |

* * *

protocol.description: AUC (0 to infinity) in mouse at 25 mg/kg, po by LC-MS/MS analysis
Type: ADME, organism-based
Set-up: dose 25 mg/kg, route po
applied.conditions: in vivo

| compound.smiles | AUC(0-inf) / ng·h/mL |
| --- | --- |
| Clc1cccc(N2CCN(c3cnnc4c(Cl)cccc34)CC2)c1 | 339 |

* * *

protocol.description: Cmax in mouse at 10 mg/kg, po by LC-MS/MS analysis
Type: ADME, organism-based
Design: dose 10 mg/kg, route po
applied.conditions: in vivo
metric: Cmax (ng/mL)

| compound.smiles | metric | recorded.value |
| --- | --- | --- |
| COc1cc(Cl)cc(N2CCN(c3cnnc4c(Cl)cccc34)CC2)c1 | Cmax | 155 |

* * *

protocol.description: Metabolic stability in CD-1 mouse liver microsomes assessed as half life at 100 uM measured upto 60 mins in presence of NADPH by LC-MS/MS analysis
Type: ADME, Microsome
applied.conditions: CD-1, mouse, liver microsomes

| compound.smiles | half-life at 100 µM / min |
| --- | --- |
| OC(O)COc1cc(Cl)cc(N2CCN(c3cnnc4c(Cl)cccc34)CC2)c1 | 42.7 |

* * *

t1/2: recorded values
protocol.description: Metabolic stability in CD-1 mouse liver microsomes assessed as half life at 100 uM measured upto 60 mins in presence of NADPH by LC-MS/MS analysis
Type: ADME, Microsome
applied.conditions: mouse, microsomes, 1 h, 100 µM
metric: t1/2 (min)

| compound.smiles | readout.unit | reported.relation | recorded.value |
| --- | --- | --- | --- |
| COc1cc(OC)cc(N2CCN(c3cnnc4c(Cl)cccc34)CC2)c1 | min | = | 2.1 |
| COc1cc(Cl)cc(N2CCN(c3cnnc4c(Cl)cccc34)CC2)c1 | min | = | 1.7 |
| Fc1ccc(N2CCN(c3cnnc4c(Cl)cccc34)CC2)cc1Cl | min | = | 6.7 |
| Clc1cccc(N2CCN(c3cnnc4c(Cl)cccc34)CC2)c1 | min | = | 11.9 |
| COC(=O)CCOc1cc(Cl)cc(N2CCN(c3cnnc4c(Cl)cccc34)CC2)c1 | min | = | 35.5 |
| NCCOc1cc(Cl)cc(N2CCN(c3cnnc4c(Cl)cccc34)CC2)c1 | min | > | 145 |
| OCCOc1cc(Cl)cc(N2CCN(c3cnnc4c(Cl)cccc34)CC2)c1 | min | = | 19.1 |
| Fc1c(Cl)cc(N2CCN(c3cnnc4c(Cl)cccc34)CC2)cc1Cl | min | = | 32.5 |

* * *

remaining at 1 h, 100 µM: recorded values
protocol.description: Metabolic stability in CD-1 mouse liver microsomes assessed as parent compound remaining at 100 uM measured after 60 mins in presence of NADPH by LC-MS/MS analysis
Type: ADME, Microsome
applied.conditions: read-out: Stability
metric: remaining at 1 h, 100 µM

| compound.smiles | metric | recorded.value |
| --- | --- | --- |
| Fc1c(Cl)cc(N2CCN(c3cnnc4c(Cl)cccc34)CC2)cc1Cl | remaining at 1 h, 100 µM | 29.6% |
| COc1cc(Cl)cc(N2CCN(c3cnnc4c(Cl)cccc34)CC2)c1 | remaining at 1 h, 100 µM | 0% |
| NCCOc1cc(Cl)cc(N2CCN(c3cnnc4c(Cl)cccc34)CC2)c1 | remaining at 1 h, 100 µM | 78.7% |
| OCCOc1cc(Cl)cc(N2CCN(c3cnnc4c(Cl)cccc34)CC2)c1 | remaining at 1 h, 100 µM | 10.5% |
| Clc1cccc(N2CCN(c3cnnc4c(Cl)cccc34)CC2)c1 | remaining at 1 h, 100 µM | 3.2% |
| OC(O)COc1cc(Cl)cc(N2CCN(c3cnnc4c(Cl)cccc34)CC2)c1 | remaining at 1 h, 100 µM | 35.7% |
| Fc1ccc(N2CCN(c3cnnc4c(Cl)cccc34)CC2)cc1Cl | remaining at 1 h, 100 µM | 0.4% |
| COc1cc(OC)cc(N2CCN(c3cnnc4c(Cl)cccc34)CC2)c1 | remaining at 1 h, 100 µM | 0.1% |
| COC(=O)CCOc1cc(Cl)cc(N2CCN(c3cnnc4c(Cl)cccc34)CC2)c1 | remaining at 1 h, 100 µM | 28.9% |

* * *

protocol.description: Tmax in mouse at 1 mg/kg, ip by LC-MS/MS analysis
Assay type: ADME, organism-based
applied.conditions: in vivo
metric: Tmax (min)

| compound.smiles | metric | readout.unit | recorded.value |
| --- | --- | --- | --- |
| COc1cc(Cl)cc(N2CCN(c3cnnc4c(Cl)cccc34)CC2)c1 | Tmax | min | 15 |

* * *

Tested on: RD
protocol.description: cells
applied.conditions: Homo sapiens, 72 h
metric: log10 IC50 (log10 of the value in µM)

| molecule | metric | recorded.value |
| --- | --- | --- |
| N#Cc1cc(Cl)cc(N2CCN(c3cnnc4c(Cl)cccc34)CC2)c1 | log10 IC50 | -0.40 |
| NCCOc1cc(Cl)cc(N2CCN(c3cnnc4c(Cl)cccc34)CC2)c1 | log10 IC50 | 0.66 |
| Clc1cc(Cl)cc(N2CCN(c3cnnc4c(Cl)cccc34)CC2)c1 | log10 IC50 | -0.21 |
| O=C(O)CCOc1cc(Cl)cc(N2CCN(c3cnnc4c(Cl)cccc34)CC2)c1 | log10 IC50 | 0.05 |
| Nc1cc(Cl)cc(N2CCN(c3cnnc4c(Cl)cccc34)CC2)c1 | log10 IC50 | 0.12 |
| CN(C)CCOc1cc(Cl)cc(N2CCN(c3cnnc4c(Cl)cccc34)CC2)c1 | log10 IC50 | 0.85 |
| Clc1cccc(N2CC3CC2CN3c2cnnc3c(Cl)cccc23)c1 (stereo not given) | log10 IC50 | 0.75 |
| Oc1cc(Cl)cc(N2CCN(c3cnnc4c(Cl)cccc34)CC2)c1 | log10 IC50 | -1.08 |
| COc1cccc(N2CCN(c3cnnc4c(Cl)cccc34)CC2)c1 | log10 IC50 | -0.05 |
| COCCOc1cc(Cl)cc(N2CCN(c3cnnc4c(Cl)cccc34)CC2)c1 | log10 IC50 | 0.13 |
| CC(=O)Nc1cc(Cl)cc(N2CCN(c3cnnc4c(Cl)cccc34)CC2)c1 | log10 IC50 | 0.87 |
| COc1cc(Cl)cc(N2CCN(c3cnnc4c(Cl)cccc34)CC2)c1 | log10 IC50 | -1.21 |
| Clc1cccc(N2C[C@H]3CC[C@@H](C2)N3c2cnnc3c(Cl)cccc23)c1 | log10 IC50 | 0.79 |
| Clc1cccc(N2CCN(c3cnnc4c(Cl)cccc34)CC2)c1 | log10 IC50 | 0.49 |
| Oc1cc(O)cc(N2CCN(c3cnnc4c(Cl)cccc34)CC2)c1 | log10 IC50 | 0.11 |
| COC(COc1cc(Cl)cc(N2CCN(c3cnnc4c(Cl)cccc34)CC2)c1)OC | log10 IC50 | 1.28 |
| CN(C)CCCOc1cc(Cl)cc(N2CCN(c3cnnc4c(Cl)cccc34)CC2)c1 | log10 IC50 | 0.57 |
| COc1cc(OC)cc(N2CCN(c3cnnc4c(Cl)cccc34)CC2)c1 | log10 IC50 | -1.48 |
| OCCOc1cc(Cl)cc(N2CCN(c3cnnc4c(Cl)cccc34)CC2)c1 | log10 IC50 | -0.39 |
| C[C@H]1CN(c2cnnc3c(Cl)cccc23)CCN1c1cc(Cl)cc(Cl)c1 | log10 IC50 | 0.03 |
| COC(=O)CCOc1cc(Cl)cc(N2CCN(c3cnnc4c(Cl)cccc34)CC2)c1 | log10 IC50 | 0.05 |

Data credit: ChEMBL document CHEMBL5352396
